Source: the MegaScale stability set (Tsuboyama et al. 2023)

B1: HEEH_KT_rd6_3546 (parent)
chain: SEEDKEREHWERLNRDFELRVLDTTFIAHHAEEVIKLLRWLEK

Variants of: B1
Assay: folding stability dG (cDNA display proteolysis); higher = more stable
Details: PBS, room temperature
reported.property: folding stability dG (kcal/mol)
All answers are understood in kcal/mol, so give the number only.

> print(dat)
                        biopolymer.sequence     reported.property  value.reported
1  SEEDKEREHWERLNRDFELRVLDTTFIAHLAEEVIKLLRWLEK  folding stability dG            2.38

Shifting focus to the variant that follows.
Which folding stability dG value belongs to SEEDKEREHWERLNRDFELRVLDTTFIAHHAEEVIKLLRWFEK ?
1.38
